Taken from ChEMBL document CHEMBL1687745.

# Assay comment: Cytotoxicity against human HeLa cells after 3 days by MTS assay in presence of 10% fetal calf serum
# Format: cell-based
The reader will find reported CC50 at 72 h values listed item by item below.
Readout: CC50 at 72 h (µg/mL)

smiles_input=c1cc2cc(-c3ccc4cc(-c5ccc6oc(C7=NCCN7)cc6c5)[nH]c4c3)[nH]c2cc1C1=NCCN1 readout="CC50 at 72 h" readout_number=17
smiles_input=C(=C\c1cc2ccc(C3=NCCN3)cc2[nH]1)/c1cc2ccc(C3=NCCN3)cc2[nH]1 readout="CC50 at 72 h" readout_number=10
smiles_input=c1cc2cc(-c3ccc(-c4cc5ccc(C6=NCCN6)cc5[nH]4)cc3)[nH]c2cc1C1=NCCN1 readout="CC50 at 72 h" readout_number=3
smiles_input=c1cc2cc(-c3ccc4cc(C5=NCCN5)[nH]c4c3)[nH]c2cc1C1=NCCN1 readout="CC50 at 72 h" readout_number=33

###

# Test system: Enterococcus faecalis
# Assay comment: Antimicrobial activity against Enterococcus faecalis clinical isolate by broth microdilution method
# Format: functional
The reader will find reported MIC values listed item by item below.
Readout: MIC

smiles_input=c1cc2cc(-c3ccc4cc(C5=NCCN5)[nH]c4c3)[nH]c2cc1C1=NCCN1 readout=MIC result="2.2 µg/mL"
smiles_input=C(=C\c1cc2ccc(C3=NCCN3)cc2[nH]1)/c1cc2ccc(C3=NCCN3)cc2[nH]1 readout=MIC result="0.6 µg/mL"
smiles_input=c1cc2cc(-c3ccc4cc(-c5ccc6oc(C7=NCCN7)cc6c5)[nH]c4c3)[nH]c2cc1C1=NCCN1 readout=MIC result="0.7 µg/mL"
smiles_input=c1cc2cc(-c3ccc(-c4cc5ccc(C6=NCCN6)cc5[nH]4)cc3)[nH]c2cc1C1=NCCN1 readout=MIC result="0.2 µg/mL"

###

# Assay comment: Cytotoxicity against mouse J774A1 cells assessed as live viable cells at 10 uM by Sytox green dye staining assay relative to untreated control
# Format: cell-based, J774.A1
# Condition label: read-out: Activity
Readout: viability at 10 µM (%)

smiles_input=c1cc2cc(-c3ccc(-c4cc5ccc(C6=NCCN6)cc5[nH]4)cc3)[nH]c2cc1C1=NCCN1 readout="viability at 10 µM" result_units=% readout_number=94

###

# Test system: Bacillus anthracis
# Assay comment: Antimicrobial activity against Bacillus anthracis Vollum clinical isolate by broth microdilution method
# Type: functional
The reader will find reported MIC values listed item by item below.
Readout: MIC (µg/mL)

smiles_input=c1cc2cc(-c3ccc(-c4cc5ccc(C6=NCCN6)cc5[nH]4)cc3)[nH]c2cc1C1=NCCN1 readout=MIC result_units=µg/mL readout_number=0.3
smiles_input=c1cc2cc(-c3ccc4cc(C5=NCCN5)[nH]c4c3)[nH]c2cc1C1=NCCN1 readout=MIC result_units=µg/mL readout_number=0.6
smiles_input=c1cc2cc(-c3ccc4cc(-c5ccc6oc(C7=NCCN7)cc6c5)[nH]c4c3)[nH]c2cc1C1=NCCN1 readout=MIC result_units=µg/mL readout_number=0.4
smiles_input=C(=C\c1cc2ccc(C3=NCCN3)cc2[nH]1)/c1cc2ccc(C3=NCCN3)cc2[nH]1 readout=MIC result_units=µg/mL readout_number=0.6

###

# Tested on: Staphylococcus aureus
# Assay comment: Antimicrobial activity against methicillin-resistant Staphylococcus aureus 1094 by broth microdilution method
# Assay type: functional
// NB: equality with 0.3 µg/mL counts as 0; only MIC strictly below is 1

smiles_input=c1cc2cc(-c3ccc(-c4cc5ccc(C6=NCCN6)cc5[nH]4)cc3)[nH]c2cc1C1=NCCN1 qualitative_label=1
smiles_input=c1cc2cc(-c3ccc4cc(-c5ccc6oc(C7=NCCN7)cc6c5)[nH]c4c3)[nH]c2cc1C1=NCCN1 qualitative_label=0
smiles_input=O=C(O)c1cn(C2CC2)c2cc(N3CCNCC3)c(F)cc2c1=O qualitative_label=0
smiles_input=C(=C\c1cc2ccc(C3=NCCN3)cc2[nH]1)/c1cc2ccc(C3=NCCN3)cc2[nH]1 qualitative_label=0

###

The reader will find reported MIC values listed item by item below.
# System: Staphylococcus aureus
# Assay comment: Antimicrobial activity against Staphylococcus aureus ATCC 25923 by broth microdilution method
# Format: functional
Readout: MIC (µg/mL)

smiles_input=c1cc2cc(-c3ccc4cc(C5=NCCN5)[nH]c4c3)[nH]c2cc1C1=NCCN1 readout=MIC readout_number=0.3
smiles_input=c1cc2cc(-c3ccc4cc(-c5ccc6oc(C7=NCCN7)cc6c5)[nH]c4c3)[nH]c2cc1C1=NCCN1 readout=MIC readout_number=0.3
smiles_input=c1cc2cc(-c3ccc(-c4cc5ccc(C6=NCCN6)cc5[nH]4)cc3)[nH]c2cc1C1=NCCN1 readout=MIC readout_number=0.1
smiles_input=C(=C\c1cc2ccc(C3=NCCN3)cc2[nH]1)/c1cc2ccc(C3=NCCN3)cc2[nH]1 readout=MIC readout_number=0.9
smiles_input=O=C(O)c1cn(C2CC2)c2cc(N3CCNCC3)c(F)cc2c1=O readout=MIC readout_number=0.3

###

The reader will find reported MIC values listed item by item below.
# Test system: Enterococcus faecalis
# Assay comment: Antimicrobial activity against Enterococcus faecalis 29212 clinical isolate by broth microdilution method
# Type: functional
Readout: MIC

smiles_input=c1cc2cc(-c3ccc4cc(C5=NCCN5)[nH]c4c3)[nH]c2cc1C1=NCCN1 result="0.3 µg/mL"
smiles_input=c1cc2cc(-c3ccc(-c4cc5ccc(C6=NCCN6)cc5[nH]4)cc3)[nH]c2cc1C1=NCCN1 result="0.2 µg/mL"
smiles_input=c1cc2cc(-c3ccc4cc(-c5ccc6oc(C7=NCCN7)cc6c5)[nH]c4c3)[nH]c2cc1C1=NCCN1 result="0.1 µg/mL"
smiles_input=C(=C\c1cc2ccc(C3=NCCN3)cc2[nH]1)/c1cc2ccc(C3=NCCN3)cc2[nH]1 result="0.3 µg/mL"

###

# Test system: Enterococcus faecalis
# Assay comment: Antimicrobial activity against vancomycin-resistant Enterococcus faecalis ATCC 51575 by broth microdilution method
# Assay type: functional
Readout: MIC (µg/mL)

smiles_input=c1cc2cc(-c3ccc(-c4cc5ccc(C6=NCCN6)cc5[nH]4)cc3)[nH]c2cc1C1=NCCN1 readout_number=0.1
smiles_input=C(=C\c1cc2ccc(C3=NCCN3)cc2[nH]1)/c1cc2ccc(C3=NCCN3)cc2[nH]1 readout_number=0.6
smiles_input=O=C(O)c1cn(C2CC2)c2cc(N3CCNCC3)c(F)cc2c1=O readout_number=0.6
smiles_input=c1cc2cc(-c3ccc4cc(-c5ccc6oc(C7=NCCN7)cc6c5)[nH]c4c3)[nH]c2cc1C1=NCCN1 readout_number=0.1
smiles_input=c1cc2cc(-c3ccc4cc(C5=NCCN5)[nH]c4c3)[nH]c2cc1C1=NCCN1 readout_number=0.5

###

# Test system: Escherichia coli
# Assay comment: Antimicrobial activity against Escherichia coli J53 clinical isolate by broth microdilution method
# Format: functional
The reader will find reported MIC values listed item by item below.
Readout: MIC (µg/mL)

smiles_input=c1cc2cc(-c3ccc4cc(C5=NCCN5)[nH]c4c3)[nH]c2cc1C1=NCCN1 readout_number=1.1
smiles_input=C(=C\c1cc2ccc(C3=NCCN3)cc2[nH]1)/c1cc2ccc(C3=NCCN3)cc2[nH]1 readout_number=0.6
smiles_input=c1cc2cc(-c3ccc(-c4cc5ccc(C6=NCCN6)cc5[nH]4)cc3)[nH]c2cc1C1=NCCN1 readout_number=0.7
smiles_input=c1cc2cc(-c3ccc4cc(-c5ccc6oc(C7=NCCN7)cc6c5)[nH]c4c3)[nH]c2cc1C1=NCCN1 readout_number=1.4

###

# Test system: Bacillus subtilis
# Assay comment: Inhibition of DNA synthesis in Bacillus subtilis BD54 at 5 X MIC by [3H]thymidine incorporation assay
# Assay type: functional, organism-based
Activity calls are given as the source filed them. The calls are words filed in the database; no cut-off is given here.
Readout: inhibition

smiles_input=O=C(N[C@H](CO)[C@H](O)c1ccc([N+](=O)[O-])cc1)C(Cl)Cl target="Bacillus subtilis" result=Active
smiles_input=CN[C@H](CC(C)C)C(=O)N[C@H]1C(=O)N[C@@H](CC(N)=O)C(=O)N[C@H]2C(=O)N[C@H]3C(=O)N[C@H](C(=O)N[C@H](C(=O)O)c4cc(O)cc(O)c4-c4cc3ccc4O)[C@H](O)c3ccc(c(Cl)c3)Oc3cc2cc(c3O[C@@H]2O[C@H](CO)[C@@H](O)[C@H](O)[C@H]2O[C@H]2C[C@](C)(N)[C@H](O)[C@H](C)O2)Oc2ccc(cc2Cl)[C@H]1O target="Bacillus subtilis" result=Active

###

# Tested on: Bacillus anthracis
# Assay comment: microbe, parasite or virus in culture
# Condition label: Ames
Readout: MIC

smiles_input=c1cc2cc(-c3ccc4cc(-c5ccc6oc(C7=NCCN7)cc6c5)[nH]c4c3)[nH]c2cc1C1=NCCN1 result="1.4 µg/mL"
smiles_input=c1cc2cc(-c3ccc4cc(C5=NCCN5)[nH]c4c3)[nH]c2cc1C1=NCCN1 result="1.1 µg/mL"
smiles_input=c1cc2cc(-c3ccc(-c4cc5ccc(C6=NCCN6)cc5[nH]4)cc3)[nH]c2cc1C1=NCCN1 result="0.3 µg/mL"
smiles_input=C(=C\c1cc2ccc(C3=NCCN3)cc2[nH]1)/c1cc2ccc(C3=NCCN3)cc2[nH]1 result="0.6 µg/mL"
